Biological target: CDK7/CycH/MNAT1 (Homo sapiens (Human))
Sequence (P50613 whole entry): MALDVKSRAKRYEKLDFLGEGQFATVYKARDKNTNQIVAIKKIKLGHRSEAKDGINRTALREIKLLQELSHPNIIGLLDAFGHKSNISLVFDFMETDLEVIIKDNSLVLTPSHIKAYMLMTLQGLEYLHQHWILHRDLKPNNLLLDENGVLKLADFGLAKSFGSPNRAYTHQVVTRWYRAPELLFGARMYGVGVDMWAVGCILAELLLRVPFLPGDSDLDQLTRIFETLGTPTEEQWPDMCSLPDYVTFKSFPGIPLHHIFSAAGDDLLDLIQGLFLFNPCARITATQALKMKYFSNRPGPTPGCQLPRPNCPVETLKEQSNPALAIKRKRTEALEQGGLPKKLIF
Sequence (P51946 whole entry partner): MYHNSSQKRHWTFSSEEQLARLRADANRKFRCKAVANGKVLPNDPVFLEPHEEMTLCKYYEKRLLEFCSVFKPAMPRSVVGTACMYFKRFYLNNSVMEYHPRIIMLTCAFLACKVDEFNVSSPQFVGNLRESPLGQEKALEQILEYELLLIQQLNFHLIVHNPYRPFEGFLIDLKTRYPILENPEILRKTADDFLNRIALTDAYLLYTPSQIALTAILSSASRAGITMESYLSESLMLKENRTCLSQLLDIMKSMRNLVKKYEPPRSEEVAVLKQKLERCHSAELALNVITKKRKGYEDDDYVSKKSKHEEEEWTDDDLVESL
Sequence (P51948 whole entry partner): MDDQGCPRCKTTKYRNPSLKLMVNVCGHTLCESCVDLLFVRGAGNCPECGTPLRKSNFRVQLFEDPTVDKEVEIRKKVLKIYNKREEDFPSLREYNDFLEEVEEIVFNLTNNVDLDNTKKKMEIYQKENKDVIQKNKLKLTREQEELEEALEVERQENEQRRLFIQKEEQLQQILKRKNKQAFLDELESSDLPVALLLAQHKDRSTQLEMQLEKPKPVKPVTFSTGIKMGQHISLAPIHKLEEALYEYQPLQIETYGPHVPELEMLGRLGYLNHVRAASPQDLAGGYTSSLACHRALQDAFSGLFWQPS
Assay: Biochemical assay for CDK7 (TR-FRET kinase assay)
Settings: 60 min pre-incubation; 1 mM ATP; read-out: IC50
measured.quantity: IC50

In the examples that follow, each entry is paired with its recorded IC50.
Give the reported IC50 for C=CC(=O)N1CCC[C@H](NC(=O)c2cccc(CNc3nc(NC4CCOCC4)nc4c(C(C)C)cnn34)c2)C1 (system: CDK7/CycH/MNAT1 (Homo sapiens (Human))).
300 to 1000 nM

Find IC50 (CDK7/CycH/MNAT1 (Homo sapiens (Human))) for the entry C=CC(=O)Nc1cc(C(=O)Nc2cccc(CNc3nc(NC4CCOCC4)nc4c(C(C)C)cnn34)c2)ccc1C [Compound 40A]
< 300 nM

Give IC50 (CDK7/CycH/MNAT1 (Homo sapiens (Human))) of the following compound: C=CC(=O)N1CCOC(C(=O)Nc2cccc(CNc3nc(OC4CCN(C)CC4)nc4c(C(C)C)cnn34)c2)C1 (stereo not shown)
< 300 nM

We next turn to a different compound, shown below.
// lookup IC50 | system=CDK7/CycH/MNAT1 (Homo sapiens (Human)) | key= C=CC(=O)Nc1ccc(C(=O)Nc2cccc(Nc3nc(OC4CCN(C)CC4)nc4c(C(C)C)cnn34)c2)cc1
< 300 nM
